- STUDY SYSTEM: Runt-related transcription factor 1 (Homo sapiens) + Core-binding factor subunit beta (Homo sapiens) (UniProt Q01196+Q13951)
- Sequence (Q01196 whole entry, looked up, the tested form may be a part): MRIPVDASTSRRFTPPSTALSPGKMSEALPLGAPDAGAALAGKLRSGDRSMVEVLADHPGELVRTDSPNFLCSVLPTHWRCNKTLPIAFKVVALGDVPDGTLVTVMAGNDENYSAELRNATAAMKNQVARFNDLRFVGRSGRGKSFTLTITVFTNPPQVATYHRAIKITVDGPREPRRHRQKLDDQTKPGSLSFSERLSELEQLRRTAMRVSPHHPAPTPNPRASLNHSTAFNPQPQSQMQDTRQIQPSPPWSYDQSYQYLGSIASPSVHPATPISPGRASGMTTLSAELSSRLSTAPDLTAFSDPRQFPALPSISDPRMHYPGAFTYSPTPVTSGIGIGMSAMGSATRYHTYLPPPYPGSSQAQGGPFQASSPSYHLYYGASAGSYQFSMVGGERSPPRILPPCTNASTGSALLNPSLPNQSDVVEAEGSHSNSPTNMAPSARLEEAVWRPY
- Sequence (Q13951 whole entry, looked up, the tested form may be a part): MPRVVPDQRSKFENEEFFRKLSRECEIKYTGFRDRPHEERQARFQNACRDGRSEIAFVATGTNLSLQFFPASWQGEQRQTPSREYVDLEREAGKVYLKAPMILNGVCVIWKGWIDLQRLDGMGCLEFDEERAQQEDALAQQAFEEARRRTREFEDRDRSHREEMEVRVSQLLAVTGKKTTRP
- TEST SUMMARY: Runt domain/CBFb-SMMHC interaction disruptors – biochemical, TR-FRET (AID 1438)
- MEASUREMENT PARAMETERS: at 20 µM, active compounds read high
Among all 2,200 compounds or so, about 45 (2%) were called active. The list is a sample of the results. Measured potencies and affinities stand elsewhere.
Param threshold (30%) applies to inhibition; output true when value >= threshold, false when value < threshold.

Threshold query (inhibition >= 30%) on `Cn1c(C(=O)NCCC2=CCCCC2)cc2c(=O)n3ccccc3nc21`
true

Hi team, for `CCN1CCc2c(C#N)c(N3CCOCC3)nc(NCc3ccccc3)c2C1` , is the recorded inhibition at or above 30%?
true

Please indicate if the recorded inhibition for `O=c1[nH]c2ccccc2n2c(-c3ccccc3)nnc12` meets or exceeds 30%.
true

Kindly determine if inhibition recorded for `C=CCn1c(=N)c(C(=O)NCCCOC)cc2c(=O)n3cccc(C)c3nc21` is above or exactly 30%.
false

Answer whether inhibition of CC(=O)N1c2ccccc2C2(O)N=C(C)SC12 (stereo unspecified) is greater than or equal to 30%.
false

Determine whether this molecule has inhibition no lower than 30%: `CCOC(=O)C1=C(O)/C(=C/c2cn(CC(=O)N3CCCC3)c3ccccc23)SC1=Nc1ccccc1`
false

Please tell me: is the molecule `CC(C)OC(=O)CC(=O)CSc1nc2c(cc1C#N)CCCCCC2` at or over 30% in terms of inhibition?
true

Assess whether reported inhibition for `COCc1cc(=O)n2c([nH]c3ccccc32)c1C#N` sits at 30% or higher.
true

Textbook exercise: given the entry `COCCCNC(=S)NCCNc1nc2c(C)c(C)ccc2cc1C#N` , state whether its inhibition is greater than or equal to 30%.
false

Hi, just wondering whether `CC(C)Cn1c(N)c(C(=O)NCCN2CCOCC2)c2nc3ccccc3nc21` shows inhibition of 30% or higher.
true

Could you tell me if the measured inhibition of `CCOc1ccc2nc(NCCNC(=S)NCCCN(C)C)c(C#N)cc2c1` reaches 30% or more?
false
